Measurement context: in acetone, 318.15 K
Measured endpoint: solubility (mole fraction)

Input: // fetch solubility (mole fraction) given entry O=C(N[C@@H](CO)C(=O)O)OCc1ccccc1
Output: 0.176

---

Measurement context: in n-butanol, 308.15 K
Measured endpoint: solubility (mole fraction)
// return just the number, without any unit appended

Input: // fetch solubility (mole fraction) given entry O=C(N[C@@H](CO)C(=O)O)OCc1ccccc1
Output: 0.067

---

Measurement context: in methyl acetate, 298.15 K
Measured endpoint: solubility (mole fraction)

Input: // fetch solubility (mole fraction) given entry O=C(N[C@@H](CO)C(=O)O)OCc1ccccc1
Output: 0.0365

---

Measurement context: in 2-butanone, 313.15 K
Measured endpoint: solubility (mole fraction)
// return just the number, without any unit appended

Input: // fetch solubility (mole fraction) given entry O=C(N[C@@H](CO)C(=O)O)OCc1ccccc1
Output: 0.0726

---

Measurement context: in isopropanol, 283.15 K
Measured endpoint: solubility (mole fraction)
// return just the number, without any unit appended

Input: // fetch solubility (mole fraction) given entry O=C(N[C@@H](CO)C(=O)O)OCc1ccccc1
Output: 0.0443

---

Measurement context: in n-butanol, 323.15 K
Measured endpoint: solubility (mole fraction)

Input: // fetch solubility (mole fraction) given entry O=C(N[C@@H](CO)C(=O)O)OCc1ccccc1
Output: 0.137

---

Measurement context: in isobutanol, 308.15 K
Measured endpoint: solubility (mole fraction)
// return just the number, without any unit appended

Input: // fetch solubility (mole fraction) given entry O=C(N[C@@H](CO)C(=O)O)OCc1ccccc1
Output: 0.0552

---

Measurement context: in isopropanol, 293.15 K
Measured endpoint: solubility (mole fraction)
// return just the number, without any unit appended

Input: // fetch solubility (mole fraction) given entry O=C(N[C@@H](CO)C(=O)O)OCc1ccccc1
Output: 0.0591

---

Measurement context: in n-propanol, 323.15 K
Measured endpoint: solubility (mole fraction)
// return just the number, without any unit appended

Input: // fetch solubility (mole fraction) given entry O=C(N[C@@H](CO)C(=O)O)OCc1ccccc1
Output: 0.175

---

Measurement context: in 2-butanone, 318.15 K
Measured endpoint: solubility (mole fraction)

Input: // fetch solubility (mole fraction) given entry O=C(N[C@@H](CO)C(=O)O)OCc1ccccc1
Output: 0.0946

---

Measurement context: in acetonitrile, 298.15 K
Measured endpoint: solubility (mole fraction)
// return just the number, without any unit appended

Input: // fetch solubility (mole fraction) given entry O=C(N[C@@H](CO)C(=O)O)OCc1ccccc1
Output: 0.0126

---

Measurement context: in acetonitrile, 293.15 K
Measured endpoint: solubility (mole fraction)
// return just the number, without any unit appended

Input: // fetch solubility (mole fraction) given entry O=C(N[C@@H](CO)C(=O)O)OCc1ccccc1
Output: 0.00993

---

Measurement context: in sec-butanol, 308.15 K
Measured endpoint: solubility (mole fraction)
// return just the number, without any unit appended

Input: // fetch solubility (mole fraction) given entry O=C(N[C@@H](CO)C(=O)O)OCc1ccccc1
Output: 0.0862

---

Measurement context: in water, 288.15 K
Measured endpoint: solubility (mole fraction)
// return just the number, without any unit appended

Input: // fetch solubility (mole fraction) given entry O=C(N[C@@H](CO)C(=O)O)OCc1ccccc1
Output: 0.00116

---

Measurement context: in isopropanol, 318.15 K
Measured endpoint: solubility (mole fraction)
// return just the number, without any unit appended

Input: // fetch solubility (mole fraction) given entry O=C(N[C@@H](CO)C(=O)O)OCc1ccccc1
Output: 0.152

---

Measurement context: in ethyl acetate, 293.15 K
Measured endpoint: solubility (mole fraction)
// return just the number, without any unit appended

Input: // fetch solubility (mole fraction) given entry O=C(N[C@@H](CO)C(=O)O)OCc1ccccc1
Output: 0.0189

// provenance: BigSolDB 2.1
